Reference for the values: patent US8680137B2

- System name: murine TRPM7 (Mus musculus)
- Sequence (Q923J1 whole entry): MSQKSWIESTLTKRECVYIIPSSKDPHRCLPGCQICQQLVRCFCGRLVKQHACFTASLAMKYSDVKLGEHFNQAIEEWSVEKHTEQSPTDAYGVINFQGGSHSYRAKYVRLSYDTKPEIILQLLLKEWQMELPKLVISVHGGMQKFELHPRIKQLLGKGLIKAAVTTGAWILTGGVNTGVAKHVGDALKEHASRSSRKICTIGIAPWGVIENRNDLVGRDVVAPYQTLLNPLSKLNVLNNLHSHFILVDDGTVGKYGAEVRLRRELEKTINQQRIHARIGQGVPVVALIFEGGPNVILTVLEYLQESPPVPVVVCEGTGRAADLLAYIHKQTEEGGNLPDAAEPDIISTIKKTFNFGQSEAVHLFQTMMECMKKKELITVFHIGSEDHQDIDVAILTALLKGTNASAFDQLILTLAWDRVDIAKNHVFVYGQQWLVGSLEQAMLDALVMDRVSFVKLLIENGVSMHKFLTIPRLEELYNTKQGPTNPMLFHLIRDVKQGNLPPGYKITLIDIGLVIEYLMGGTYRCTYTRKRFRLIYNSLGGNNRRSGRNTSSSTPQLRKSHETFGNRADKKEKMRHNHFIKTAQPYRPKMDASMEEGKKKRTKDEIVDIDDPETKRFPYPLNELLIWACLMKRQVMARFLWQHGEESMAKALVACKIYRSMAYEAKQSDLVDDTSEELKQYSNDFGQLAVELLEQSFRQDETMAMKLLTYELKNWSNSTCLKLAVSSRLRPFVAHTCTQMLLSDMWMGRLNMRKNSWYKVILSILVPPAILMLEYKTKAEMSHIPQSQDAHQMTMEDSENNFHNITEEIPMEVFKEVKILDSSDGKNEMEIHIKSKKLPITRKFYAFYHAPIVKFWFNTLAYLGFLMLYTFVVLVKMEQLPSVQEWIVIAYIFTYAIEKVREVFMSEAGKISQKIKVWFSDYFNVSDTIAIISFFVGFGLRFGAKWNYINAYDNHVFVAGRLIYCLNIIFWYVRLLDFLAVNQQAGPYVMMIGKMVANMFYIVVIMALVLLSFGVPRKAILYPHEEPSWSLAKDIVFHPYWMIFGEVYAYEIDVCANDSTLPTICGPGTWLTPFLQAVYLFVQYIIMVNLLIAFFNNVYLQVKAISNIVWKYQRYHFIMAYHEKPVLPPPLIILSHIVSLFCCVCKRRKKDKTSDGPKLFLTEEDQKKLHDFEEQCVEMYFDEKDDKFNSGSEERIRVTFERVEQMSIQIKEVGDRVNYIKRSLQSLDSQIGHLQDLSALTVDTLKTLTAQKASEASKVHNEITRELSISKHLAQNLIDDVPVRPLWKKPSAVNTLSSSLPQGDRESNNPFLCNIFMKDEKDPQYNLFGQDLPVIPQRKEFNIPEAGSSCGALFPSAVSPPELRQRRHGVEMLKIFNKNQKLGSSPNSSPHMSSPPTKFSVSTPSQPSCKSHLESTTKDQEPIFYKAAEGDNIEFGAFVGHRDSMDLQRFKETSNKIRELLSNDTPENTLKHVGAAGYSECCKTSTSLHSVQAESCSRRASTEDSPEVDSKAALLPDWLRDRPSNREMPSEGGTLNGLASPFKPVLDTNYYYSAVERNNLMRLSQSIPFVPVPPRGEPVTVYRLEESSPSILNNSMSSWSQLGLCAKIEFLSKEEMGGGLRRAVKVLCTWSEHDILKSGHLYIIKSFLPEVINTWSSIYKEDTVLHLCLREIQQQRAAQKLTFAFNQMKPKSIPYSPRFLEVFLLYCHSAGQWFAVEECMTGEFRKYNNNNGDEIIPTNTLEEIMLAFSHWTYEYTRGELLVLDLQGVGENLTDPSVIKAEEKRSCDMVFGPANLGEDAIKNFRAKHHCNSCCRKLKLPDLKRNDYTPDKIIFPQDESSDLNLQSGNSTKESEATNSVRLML
- Protocol: TRPM7-mediated cell death screen, Tet-induced Flag-murine TRPM7 HEK293 Trex cells in Mg2+-deficient HBSS, PI fluorescence
- Experimental parameters: Prestwick library, initial concentration 5 μM, HTS PI fluorescence
Structures can show the parent of a compound that is named as a salt.
Test readout: B Score
Answers are plain numbers.

Guide cases for B Score, answers given:
COc1cccc2c1C(=O)c1c(O)c3c(c(O)c1C2=O)C[C@@](O)(C(C)=O)C[C@@H]3O[C@H]1C[C@H](N)[C@H](O)[C@H](C)O1 [Daunorubicin hydrochloride]	−5.68
COC(=O)C1=C(C)NC(C)=C(C(=O)OCCN(C)Cc2ccccc2)C1c1cccc([N+](=O)[O-])c1 (centres unmarked) [Nicardipine hydrochloride]	−7.543
COc1ccccc1N1CCN(CC(O)COc2cccc3ccccc23)CC1 (centres unmarked) [Naftopidil dihydrochloride]	−8.736
CC[C@@H](C(=O)[C@@H](C)[C@@H](O)[C@H](C)CCc1ccc(C)c(O)c1C(=O)O)[C@H]1O[C@](CC)([C@H]2CC[C@](O)(CC)[C@H](C)O2)C[C@@H]1C [Lasalocid sodium salt]	−5.54

Q: What is its B Score for murine TRPM7 (Mus musculus)? Entry: C[C@@]12C(=O)OC(=O)[C@]1(C)[C@H]1CC[C@@H]2O1
Result: −9.671

---

- System name: UniProtKB Q923J1
- Protocol: TRPM7-mediated cell death screen, Tet-induced Flag-murine TRPM7 HEK293 Trex cells in Mg2+-deficient HBSS, PI fluorescence
- Experimental parameters: LOPAC library, initial concentration 4 μM, HTS PI fluorescence
Where a name gives a salt, the structure may show the parent alone.
Test readout: B Score

Study these solved cases before continuing.
Ic1ccccc1CNC1C2CCN(CC2)C1C(c1ccccc1)c1ccccc1.O=C(O)C(=O)O [L-703,606 oxalate]	−8.636
O=C(O)c1cc(O)cc(C(=O)O)n1	−12.502
C[n+]1cc2c3c(ccc2c2ccc4cc5c(cc4c21)OCO5)OCO3 [Sanguinarine chloride]	−6.158
CCn1cnc2c(Nc3cccc(Cl)c3)nc(N[C@@H]3CCCC[C@@H]3N)nc21.Cl [CGP-74514A hydrochloride]	−7.96

Go through the list and state B Score for each entry.
1. O=C1c2c(O)ccc(O)c2C(=O)c2c(NCCNCCO)ccc(NCCNCCO)c21
2. COc1cc2c(cc1OC)-c1c/c(=N\c3c(C)cc(C)cc3C)n(C)c(=O)n1CC2 [Trequinsin hydrochloride]

Result:
1. −7.587
2. −8.81

Please state B Score for every molecule in the list that follows.
1. CCN(CC)CCCC(C)Nc1c2ccc(Cl)cc2nc2ccc(OC)cc12 (stereo not shown) [Quinacrine dihydrochloride]
2. C[C@@]12C(=O)OC(=O)[C@]1(C)[C@H]1CC[C@@H]2O1
3. COc1cccc(OC)c1OCCNCC1CSc2ccccc2O1 (stereo not shown) [Benoxathian hydrochloride]

Result:
["−5.516", "−10.178", "−10.32"]

Q: Entry COc1ccccc1N1CCN(CC(O)COc2cccc3ccccc23)CC1 (stereo not shown) [Naftopidil dihydrochloride] has what B Score?
Result: −7.535

---

- System name: UniProtKB Q923J1
- Protocol: TRPM7-mediated cell death screen, Tet-induced Flag-murine TRPM7 HEK293 Trex cells in Mg2+-deficient HBSS, PI fluorescence
- Experimental parameters: Prestwick library, 39 nM to 20 μM
Structures can show the parent of a compound that is named as a salt.
Test readout: Dose-Response

COc1cccc2c1C(=O)c1c(O)c3c(c(O)c1C2=O)C[C@@](O)(C(C)=O)C[C@@H]3O[C@H]1C[C@H](N)[C@H](O)[C@H](C)O1 [Daunorubicin hydrochloride]	Yes
COc1cc(/C=C/C(=O)N2CCC=CC2=O)cc(OC)c1OC	Yes
COC(=O)C1=C(C)NC(C)=C(C(=O)OCCN(C)Cc2ccccc2)C1c1cccc([N+](=O)[O-])c1 (stereo not drawn) [Nicardipine hydrochloride]	Yes

---

- System name: murine TRPM7 (Mus musculus)
- Protocol: TRPM7-mediated cell death screen, Tet-induced Flag-murine TRPM7 HEK293 Trex cells in Mg2+-deficient HBSS, PI fluorescence
- Experimental parameters: Prestwick library, manual replication
Counter-ions that a name gives are not always drawn.
Can you tell me Verification Ratio for the items I'm about to list?

COC(=O)C1=C(C)NC(C)=C(C(=O)OCCN(C)Cc2ccccc2)C1c1cccc([N+](=O)[O-])c1 (stereo not shown) [Nicardipine hydrochloride]	0.6651
COc1cc(/C=C/C(=O)N2CCC=CC2=O)cc(OC)c1OC [Piperlongumine]	0.7354
Cc1cc(C2CCCCC2)n(O)c(=O)c1.NCCO [Ciclopirox ethanolamine]	0.4227
C[C@@]12C(=O)OC(=O)[C@]1(C)[C@H]1CC[C@@H]2O1 [Cantharidin]	0.3746
COc1cccc2c1C(=O)c1c(O)c3c(c(O)c1C2=O)C[C@@](O)(C(=O)CO)C[C@@H]3O[C@H]1C[C@H](N)[C@H](O)[C@H](C)O1 [Doxorubicin hydrochloride]	0.4588

Please look at the items below and tell me Verification Ratio for each one, in order.
1. CC[C@@H](C(=O)[C@@H](C)[C@@H](O)[C@H](C)CCc1ccc(C)c(O)c1C(=O)O)[C@H]1O[C@](CC)([C@H]2CC[C@](O)(CC)[C@H](C)O2)C[C@@H]1C [Lasalocid sodium salt]
2. COc1ccc(C[C@H]2NC[C@H](O)[C@H]2OC(C)=O)cc1 [Anisomycin]

Result:
0.6891
0.4265

---

- System name: UniProtKB Q923J1
- Protocol: TRPM7-mediated cell death screen, Tet-induced Flag-murine TRPM7 HEK293 Trex cells in Mg2+-deficient HBSS, PI fluorescence
- Experimental parameters: LOPAC library, manual replication
Counter-ions that a name gives are not always drawn.
Test readout: Verification Ratio
Give bare numbers.

Consider the worked cases shown below.
COc1cccc(OC)c1OCCNCC1CSc2ccccc2O1 (stereo not drawn) [Benoxathian hydrochloride]	0.359
O=C(O)c1cc(O)cc(C(=O)O)n1	1.287
C[n+]1cc2c3c(ccc2c2ccc4cc5c(cc4c21)OCO5)OCO3 [Sanguinarine chloride]	0.8029
COc1ccccc1N1CCN(CC(O)COc2cccc3ccccc23)CC1 (stereo not drawn) [Naftopidil dihydrochloride]	0.2231
COc1cc2c(cc1OC)-c1c/c(=N\c3c(C)cc(C)cc3C)n(C)c(=O)n1CC2 [Trequinsin hydrochloride]	0.2534

Q: So what's the measured Verification Ratio for this one? CCN(CC)CCCC(C)Nc1c2ccc(Cl)cc2nc2ccc(OC)cc12 (stereo not drawn) [Quinacrine dihydrochloride]
Result: 0.8254

---

- System: RXF-393 renal
- Protocol: Cancer cell proliferation, RXF-393
- Type: cell-based, human
- Experimental parameters: Homo sapiens, RXF 393, 72 h, RXF393, Exp 1, 72 hours; read-out: IC50
Test readout: pIC50
Answers are plain numbers, as −log10 of the molar value.

Q: Can you look up pIC50 on RXF-393 renal for COc1cc2c(cc1OC)C(c1sc3ccccc3c1Cl)=NCC2 ?
Result: 5.28

---

- System name: murine TRPM7 (Mus musculus)
- Protocol: TRPM7-mediated cell death screen, Tet-induced Flag-murine TRPM7 HEK293 Trex cells in Mg2+-deficient HBSS, PI fluorescence
- Experimental parameters: Prestwick library, initial concentration 5 μM, HTS PI fluorescence
Where a name gives a salt, the structure may show the parent alone.
So I've got a bunch of molecules here, and I need their B Score values.
One number for each entry.

Batch: B Score for all items listed.
1. COc1ccc(C[C@H](N)C(=O)N[C@H]2[C@@H](O)[C@H](n3cnc4c(N(C)C)ncnc43)O[C@@H]2CO)cc1 [Puromycin dihydrochloride]
2. COc1cc(/C=C/C(=O)N2CCC=CC2=O)cc(OC)c1OC
3. CC[C@H]1CN2CCc3cc(OC)c(OC)cc3[C@@H]2C[C@@H]1C[C@H]1NCCc2cc(O)c(OC)cc21.Cl.Cl.O.O.O.O.O.O.O [Cephaeline dihydrochloride heptahydrate]
4. COc1cccc2c1C(=O)c1c(O)c3c(c(O)c1C2=O)C[C@@](O)(C(=O)CO)C[C@@H]3O[C@H]1C[C@H](N)[C@H](O)[C@H](C)O1 [Doxorubicin hydrochloride]
5. Cc1cc(C2CCCCC2)n(O)c(=O)c1.NCCO
6. CCOc1ccc(Cc2nccc3cc(OCC)c(OCC)cc23)cc1OCC [Ethaverine hydrochloride]
7. COc1ccc(C[C@H]2NC[C@H](O)[C@H]2OC(C)=O)cc1

Result:
1. −5.573
2. −9.599
3. −7.927
4. −9.315
5. −5.075
6. −9.238
7. −6.683

---

- System name: murine TRPM7 (Mus musculus)
- Protocol: TRPM7-mediated cell death screen, Tet-induced Flag-murine TRPM7 HEK293 Trex cells in Mg2+-deficient HBSS, PI fluorescence
- Experimental parameters: LOPAC library, 39 nM to 20 μM
Where a name gives a salt, the structure may show the parent alone.
Test readout: Dose-Response

// solved cases for Dose-Response follow
Ic1ccccc1CNC1C2CCN(CC2)C1C(c1ccccc1)c1ccccc1.O=C(O)C(=O)O [L-703,606 oxalate]	Yes
O=C1c2c(O)ccc(O)c2C(=O)c2c(NCCNCCO)ccc(NCCNCCO)c21	Yes
COc1cc2c(cc1OC)-c1c/c(=N\c3c(C)cc(C)cc3C)n(C)c(=O)n1CC2 [Trequinsin hydrochloride]	Yes
COc1cccc(OC)c1OCCNCC1CSc2ccccc2O1 (centres unmarked) [Benoxathian hydrochloride]	Yes
COc1ccccc1N1CCN(CC(O)COc2cccc3ccccc23)CC1 (centres unmarked) [Naftopidil dihydrochloride]	Yes

Hello, I would appreciate it if you could give Dose-Response for each entry below.
1. O=C(O)c1cc(O)cc(C(=O)O)n1
2. CCn1cnc2c(Nc3cccc(Cl)c3)nc(N[C@@H]3CCCC[C@@H]3N)nc21.Cl [CGP-74514A hydrochloride]

Result:
["Yes", "Yes"]

Q: If you can, please state the reported Dose-Response value of CCN(CC)CCCC(C)Nc1c2ccc(Cl)cc2nc2ccc(OC)cc12 (centres unmarked) [Quinacrine dihydrochloride] .
Result: Yes
